Here's a roundup of IC50 values tested on human 20 S proteasome (Homo sapiens, UniProt P28074), taken from various published works.

{"CHEMICAL_SMILES": "Cc1nc2ccccc2n1CCC(=O)N[C@@H](Cc1ccsc1)B(O)O", "IC50": "0.05 to 0.5 µM"}
{"CHEMICAL_SMILES": "N#Cc1ccc(CC(=O)N[C@@H](Cc2coc3ccccc23)B(O)O)cc1", "IC50": "0.05 to 0.5 µM"}
{"CHEMICAL_SMILES": "O=C(CCn1nnc2ccccc21)N[C@@H](Cc1ccsc1)B(O)O", "IC50": "0.05 to 0.5 µM"}
{"CHEMICAL_SMILES": "O=C(N[C@@H](CC1CCC1)B(O)O)[C@H](Cc1ccccc1)NS(=O)(=O)c1ccc(Oc2ccccc2)nc1", "IC50": "< 0.05 µM"}
{"CHEMICAL_SMILES": "COc1ccc(CC(=O)N[C@H](C[C@@H]2COc3ccccc32)B(O)O)cc1", "IC50": "> 5 µM"}
{"CHEMICAL_SMILES": "O=C(N[C@@H](Cc1ccccc1)C(=O)N[C@@H](CC1CCC1)B(O)O)c1cc(Cl)ccc1Cl", "IC50": "< 0.05 µM"}
{"CHEMICAL_SMILES": "O=C(N[C@@H](Cc1ccccc1)C(=O)N[C@@H](CC1CCC1)B(O)O)c1ccc(O)c(CN2CCOCC2)c1", "IC50": "< 0.05 µM"}
{"CHEMICAL_SMILES": "COc1ccccc1CC(=O)N[C@@H](Cc1coc2ccccc12)B(O)O", "IC50": "0.05 to 0.5 µM"}
{"CHEMICAL_SMILES": "Cc1cccc2c(C[C@@H](NC(=O)[C@H](CO)c3ccccc3)B(O)O)coc12", "IC50": "> 5 µM"}
{"CHEMICAL_SMILES": "Cc1ccc(C[C@H](NC(=O)Cc2ccccc2)B(O)O)c(C)c1", "IC50": "> 5 µM"}
{"CHEMICAL_SMILES": "CC(=O)N[C@@H](Cc1ccc2ccccc2c1)B(O)O", "IC50": "0.5 to 5 µM"}
{"CHEMICAL_SMILES": "O=C(CCc1noc(-c2ccccc2)n1)N[C@@H](Cc1cccc(C(F)(F)F)c1)B(O)O", "IC50": "0.5 to 5 µM"}
{"CHEMICAL_SMILES": "Cc1ccc(C[C@H](NC(=O)Cc2ccc(N3CCCC3=O)cc2)B(O)O)c(C)c1", "IC50": "0.5 to 5 µM"}
{"CHEMICAL_SMILES": "C[C@H](C(=O)N[C@@H](C[C@H]1COc2ccccc21)B(O)O)c1ccccc1C(=O)N(C)C", "IC50": "> 5 µM"}
{"CHEMICAL_SMILES": "O=C(Cc1ccccc1)N[C@@H](C[C@@H]1COc2c(Cl)cccc21)B(O)O", "IC50": "0.5 to 5 µM"}
{"CHEMICAL_SMILES": "COc1ccc(C(=O)CCC(=O)N[C@@H](Cc2ccsc2)B(O)O)c(OC)c1", "IC50": "> 5 µM"}
{"CHEMICAL_SMILES": "N#Cc1ccccc1CC(=O)N[C@@H](Cc1coc2ccccc12)B(O)O", "IC50": "0.5 to 5 µM"}

----------
// cross-source set; read-out = IC50; system = human 20 S proteasome (Homo sapiens, UniProt P28074)

{"COMPOUND": "CN1CCOc2ccc(C(=O)N[C@@H](Cc3ccccc3)C(=O)N[C@@H](CC3CCC3)B(O)O)cc21", "IC50": "< 50 nM"}
{"COMPOUND": "COc1ccc(C[C@H](NC(=O)[C@H](C)NC(=O)CN2CCC(F)(F)CC2)C(=O)N[C@@H](CC2CCCC2)C(=O)[C@@]2(C)CO2)cc1", "IC50": "361 nM"}
{"COMPOUND": "COCc1ccc(CC(=O)N[C@@H](Cc2coc3ccccc23)B(O)O)cc1", "IC50": "50 to 500 nM"}
{"COMPOUND": "O=C(CCOc1ccccc1)N[C@@H](C[C@@H]1COc2ccccc21)B(O)O", "IC50": "50 to 500 nM"}
{"COMPOUND": "COc1cc(F)cc(C[C@H](NC(=O)CCn2cnc3ccccc32)B(O)O)c1", "IC50": "50 to 500 nM"}
{"COMPOUND": "Cc1cccc2c(C[C@@H](NC(=O)[C@@H](CO)c3ccccc3)B(O)O)coc12", "IC50": "> 5000 nM"}
{"COMPOUND": "COc1cccc(CCC(=O)N[C@@H](Cc2coc3ccccc23)B(O)O)c1", "IC50": "< 50 nM"}
{"COMPOUND": "O=C(CCC(=O)c1cccc(-c2ccccc2)n1)N[C@@H](Cc1ccsc1)B(O)O", "IC50": "500 to 5000 nM"}
{"COMPOUND": "C[C@@H](NC(=O)C1CCOCC1)C(=O)N[C@@H](Cc1ccc(S(C)(=O)=O)cc1)C(=O)N[C@@H](CC1CCCC1)C(=O)[C@@]1(C)CO1", "IC50": "978 nM"}
{"COMPOUND": "COc1ccc(C(=O)CCC(=O)N[C@@H](Cc2cccc(C(F)(F)F)c2)B(O)O)cc1", "IC50": "> 5000 nM"}
{"COMPOUND": "O=C(CCn1cnc2ccccc21)N[C@@H](Cc1coc2ccccc12)B(O)O", "IC50": "< 50 nM"}
{"COMPOUND": "O=C(N[C@@H](Cc1ccsc1)B(O)O)[C@@H](Cc1ccccc1)Cc1cn(-c2ccccc2)nn1", "IC50": "< 50 nM"}
{"COMPOUND": "CC(C)(O)c1ccc(CC(=O)N[C@@H](Cc2coc3ccccc23)B(O)O)cc1", "IC50": "50 to 500 nM"}
{"COMPOUND": "CCOc1ccc(CC(=O)N[C@@H](Cc2coc3ccccc23)B(O)O)nc1", "IC50": "50 to 500 nM"}
{"COMPOUND": "COc1ccc(C[C@H](NC(=O)[C@H](C)NC(=O)CN2CCC(Cl)CC2)C(=O)N[C@@H](CC2CCCC2)C(=O)[C@@]2(C)CO2)cc1", "IC50": "470 nM"}
{"COMPOUND": "COc1ccc(C(=O)CC(Cc2ccccc2)C(=O)N[C@@H](Cc2ccc(OC(F)(F)F)cc2)B(O)O)cc1 (stereo partly drawn)", "IC50": "50 to 500 nM"}
{"COMPOUND": "O=C(N[C@@H](Cc1coc2ccccc12)B(O)O)C(c1ccccc1)c1ccccc1", "IC50": "500 to 5000 nM"}
{"COMPOUND": "O=C(Cc1ncccn1)N[C@@H](Cc1coc2ccccc12)B(O)O", "IC50": "50 to 500 nM"}
{"COMPOUND": "COc1ccc(C[C@H](NC(=O)[C@@H](C)NC(=O)C2CCOCC2)C(=O)N[C@@H](CC2=CCCC2)C(=O)[C@@]2(C)CO2)cc1O", "IC50": "232 nM"}
{"COMPOUND": "CCOc1cccc(C[C@H](NC(=O)CCc2noc(-c3ccccc3)n2)B(O)O)c1", "IC50": "500 to 5000 nM"}
{"COMPOUND": "COc1ccc(OCCC(=O)N[C@@H](Cc2ccc(C)cc2)B(O)O)cc1", "IC50": "50 to 500 nM"}
{"COMPOUND": "CCc1cccc(C[C@H](NC(=O)CCn2cc(-c3cccnc3)nn2)B(O)O)c1", "IC50": "500 to 5000 nM"}
{"COMPOUND": "CC1(C)[C@@H]2C[C@H]3OB([C@H](CC4CCC4)NC(=O)[C@H](Cc4ccccc4)NS(=O)(=O)c4cccnc4)O[C@@]3(C)[C@H]1C2", "IC50": "50 to 150 nM"}
{"COMPOUND": "O=C(CCn1cc(-c2ccccc2)nn1)N[C@@H](Cc1coc2ccccc12)B(O)O", "IC50": "< 50 nM"}
{"COMPOUND": "Cn1ncc2cc(C[C@H](NC(=O)CCn3c(=O)sc4ccccc43)B(O)O)ccc21", "IC50": "< 50 nM"}
{"COMPOUND": "O=C(Cc1ccccc1-c1ccccc1)N[C@@H](Cc1coc2ccccc12)B(O)O", "IC50": "500 to 5000 nM"}
{"COMPOUND": "COc1ccc(C[C@H](NC(=O)[C@H](C)NC(=O)CN2CCOCC2)C(=O)N[C@@H](Cc2ccccc2)C(=O)[C@@]2(C)CO2)cc1OC", "IC50": "909 nM"}
{"COMPOUND": "O=C1COc2cc(S(=O)(=O)N[C@@H](Cc3ccccc3)C(=O)N[C@@H](CC3CCC3)B(O)O)c(Cl)cc2N1", "IC50": "< 50 nM"}
{"COMPOUND": "COc1ccc(C(=O)C[C@H](Cc2ccccc2)C(=O)N[C@@H](Cc2ccsc2)B(O)O)cc1 (single isomer, unassigned)", "IC50": "50 to 500 nM"}
{"COMPOUND": "O=C(Cc1cc(F)c(F)c(F)c1)N[C@@H](Cc1coc2ccccc12)B(O)O", "IC50": "50 to 500 nM"}
